Test system: A. baumannii strain 98-37-09
Experiment: AK assay 384-well format, Prestwick library screening
Format: cell-based, Acinetobacter baumannii
Details: Acinetobacter baumannii, 983709, 3 h; planktonic A. baumannii; 50 μM final drug concentration; positive cutoff 3-fold increase; read-out: AK-based Prestwick library screening result, A. baumannii (fold increase in extracellular AK activity)
Structures can show the parent of a compound that is named as a salt.
MEASUREMENT_NAME: fold induction at 50 µM
One number for each entry.

Below are some compounds; for each one, tell me its fold induction at 50 µM.
1. COc1ccccc1OCC(O)CN1CCN(CC(=O)Nc2c(C)cccc2C)CC1 (stereo not shown)
2. c1cnc(N2CCN(Cc3ccc4c(c3)OCO4)CC2)nc1 [Piribedil hydrochloride]
3. CCOC(=O)[C@@](C)(N)Cc1ccc(O)c(O)c1 [Methyldopate hydrochloride]
4. COc1ccc2c(c1)C(=O)N(CCc1ccc(S(=O)(=O)NC(=O)NC3CCCCC3)cc1)C(=O)C2(C)C

Found:
1: 1.2; 2: 0.7; 3: 1.4; 4: 0.7

====

System: E. coli
Test: AK assay 384-well format, Prestwick library screening
Type: cell-based, Escherichia coli
Conditions: Escherichia coli, 3 h; 50 μM final drug concentration; planktonic; cutoff for positive-scoring molecules 3-fold increase; read-out: AK-based Prestwick Library Screening Results, E. coli (fold increase in extracellular AK activity)
Structures can show the parent of a compound that is named as a salt.
Categorized via fold induction at 50 µM: small value (below 0.6), mid value (0.6 to below 0.9), large value (0.9 or more)

Examples from the recorded data:
>>> answer_label("CN(C)[C@@H]1C(O)=C(C(N)=O)C(=O)[C@@]2(O)C(O)=C3C(=O)c4c(O)ccc(Cl)c4[C@@H](O)[C@H]3C[C@@H]12 [Demeclocycline hydrochloride]")
"small value"
>>> answer_label("CC(=O)c1cc2ccccc2oc1=O")
"mid value"
>>> answer_label("COc1c2ccoc2nc2c(OC)c(OCC(O)C(C)(C)O)ccc12 (stereo not drawn)")
"mid value"
>>> answer_label("Cn1nnnc1SCC1=C(C(=O)O)N2C(=O)[C@@H](NC(=O)[C@H](O)c3ccccc3)[C@H]2SC1 [Cefamandole sodium salt]")
"large value"
>>> answer_label("CCC1=C(C)CN(C(=O)NCCc2ccc(S(=O)(=O)NC(=O)N[C@H]3CC[C@H](C)CC3)cc2)C1=O [Glimepiride]")
"small value"

Lookup: Lab note: which band did C[C@]12CC[C@H](O)C[C@H]1CC[C@@H]1[C@@H]2C[C@@H](O)[C@]2(C)[C@@H](C3=CC(=O)OC3)CC[C@]12O land in?
Found: mid value

Lookup: Lab note: which band did CC(C(=O)O)c1ccc(-c2ccccc2)c(F)c1 (stereo not drawn) land in?
Found: mid value

Lookup: Lab note: which band did C/C(=C(\CCOP(=O)(O)O)SC(=O)c1ccccc1)N(C=O)Cc1cnc(C)nc1N land in?
Found: mid value

Lookup: Lab note: which band did CC1(C)[C@@H](OC(=O)CCC(=O)O)CC[C@]2(C)[C@H]3C(=O)C=C4[C@@H]5C[C@@](C)(C(=O)O)CC[C@]5(C)CC[C@@]4(C)[C@]3(C)CC[C@@H]12 [Carbenoxolone disodium salt] land in?
Found: mid value

Lookup: Lab note: which band did O=C(O)/C=C/c1ccc(O)c(O)c1 land in?
Found: large value

Lookup: Lab note: which band did CO[C@@]1(NC(=O)C(C(=O)O)c2ccc(O)cc2)C(=O)N2C(C(=O)O)=C(CSc3nnnn3C)CO[C@@H]21 (stereo partly drawn) [Moxalactam disodium salt] land in?
Found: large value

Lookup: Lab note: which band did CCS(=O)(=O)CCn1c([N+](=O)[O-])cnc1C land in?
Found: large value

Lookup: Lab note: which band did O=C(Cn1ccnc1[N+](=O)[O-])NCCO land in?
Found: small value

Lookup: Lab note: which band did Oc1ccc(OCc2ccccc2)cc1 land in?
Found: mid value

Lookup: Lab note: which band did CC(C)(C)NCC(O)COc1cccc2c1CC(O)C(O)C2 (stereo not drawn) land in?
Found: mid value
